test system: human maximum recommended daily dose, FDA database; assay: DSSTox (FDAMDD) FDA Maximum (Recommended) Daily Dose Database; conditions: TherapeuticCategory: antiasthmatic; stronger effect = lower value
# label = 1 if maximum recommended daily dose (mmol/kg-bw/day) < 0.0001 else -1

For COc1cc(C(=O)NS(=O)(=O)c2ccccc2C)ccc1Cc1cn(C)c2ccc(NC(=O)OC3CCCC3)cc12 , is the recorded maximum recommended daily dose (mmol/kg-bw/day) below the cut-off of 0.0001? -1

For COc1ccc(C[C@@H](C)NC[C@H](O)c2ccc(O)c(NC=O)c2)cc1 , is the recorded maximum recommended daily dose (mmol/kg-bw/day) below the cut-off of 0.0001? -1

For CC(C)(O)c1ccccc1CC[C@@H](SCC1(CC(=O)O)CC1)c1cccc(/C=C/c2ccc3ccc(Cl)cc3n2)c1 , is the recorded maximum recommended daily dose (mmol/kg-bw/day) below the cut-off of 0.0001? -1

For CN1CCC(=C2c3ccccc3CC(=O)c3sccc32)CC1 , is the recorded maximum recommended daily dose (mmol/kg-bw/day) below the cut-off of 0.0001? -1

For CC(C)(C)NCC(O)c1cc(Cl)c(N)c(Cl)c1 (stereo not given) , is the recorded maximum recommended daily dose (mmol/kg-bw/day) below the cut-off of 0.0001? 1
